compounds and their reported z-score
# experimental target: NADPH oxidase 5 (Homo sapiens)
# assay summary: NOX5-dependent H2O2 signal modulators, primary screen, NOX inhibitor project, cell-based, HEK293-NOX5, Amplex Red fluorescence (AID 1161)
# measurement setup: HEK293-NOX5, ionomycin, 45 min, higher = more signal
experimental endpoint: z-score

>>> quantitative_result("COC(=O)[C@H](Cc1ccccc1)N1CC(/C=C/C2CC2)=C[C@@H]1[C@@H](O)Cc1ccccc1")
0.424
>>> quantitative_result("NC(=O)NCC#Cc1ccc2c(c1)[C@]1(C(=O)N2)[C@H](C(=O)O)[C@H]2C(=O)O[C@H](c3ccccc3)[C@H](c3ccccc3)N2[C@@H]1c1ccccc1OCCO")
-0.188
>>> quantitative_result("COc1ccc(C(O)C2C=CC3C(=O)N(Cc4ccccc4)C(=O)C3N2n2cnnc2)c2ccccc12 (configuration not stated)")
-3.65
>>> quantitative_result("COc1ccccc1CN1C(=O)c2ccccc2[C@](Cc2ccccc2I)(C(=O)NC(C)C)[C@@H]1c1ccc(CO)cc1")
-2.1
>>> quantitative_result("C[C@@H](OCc1ccccc1)C1NC(=O)[C@@]23C(=O)N[C@@H](Cc4ccccc4)C2[C@H](C)[C@@]2(C)O[C@H]2C3/C=C/C/C=C\\CNC(=O)CNC1=O (some centres not stated)")
1.56
>>> quantitative_result("O=C1NCC(=O)N2[C@@H]1C[C@@H](C(=O)O)[C@H]2c1ccc(O)cc1")
-1.29
>>> quantitative_result("CCCCN1CC=CC23O[C@@H]4/C=C\\CCC(C)OC(=O)C4[C@H]2C(=O)N(CCCCCCO)[C@@H]3C1=O (some centres not stated)")
2.3

---

# experimental target: Follistatin-related protein 3 (Homo sapiens) (UniProt O95633)
# Sequence (O95633 whole entry, looked up): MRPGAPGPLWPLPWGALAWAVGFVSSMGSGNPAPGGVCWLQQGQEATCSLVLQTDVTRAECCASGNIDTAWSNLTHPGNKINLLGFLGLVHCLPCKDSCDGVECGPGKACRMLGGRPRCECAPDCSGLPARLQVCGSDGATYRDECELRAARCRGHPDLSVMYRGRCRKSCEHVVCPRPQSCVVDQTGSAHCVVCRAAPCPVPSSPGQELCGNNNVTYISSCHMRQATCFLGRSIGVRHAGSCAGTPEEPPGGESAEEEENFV
# assay summary: FSTL3 binders on small-molecule microarrays, primary screen, biochemical, small-molecule microarray, 635 nm fluorescence (AID 1105);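 note: score merges emission near 667 nm and signal to noise per printed spot across three slides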
# measurement setup: FSTL3 binding, higher = more signal
// reported composite z-score per item
experimental endpoint: composite z-score

>>> quantitative_result("CCCNC(=O)[C@@]1(c2ccc([N+](=O)[O-])cc2)CC(=O)N(C2CCCCC2)[C@@H]1c1ccc(CO)cc1I")
0.532
>>> quantitative_result("CCOC(=O)C1=CC[C@@H](c2ccc([N+](=O)[O-])cc2)N(S(=O)(=O)c2ccc(C)cc2)[C@H]1c1ccccc1")
1.26
>>> quantitative_result("C=CCN1C(=O)[C@]2(CC=C)N=C(c3ccc(OCCCO)cc3)O[C@@H]2c2ccccc21")
1.18
>>> quantitative_result("CCOC(=O)[C@H]1C/C=C/C[C@H](C(=O)OCC)C(=O)O[C@H]2[C@@H](OC)O[C@H](CO)[C@@H](OC(=O)Nc3ccc(OC)cc3)[C@@H]2OC1=O")
1.29
>>> quantitative_result("CO[C@H]1O[C@H](CO)[C@@H](OC(=O)Nc2ccccc2-c2ccccc2)[C@H](OC(=O)Nc2ccc3c(c2)OCO3)[C@@H]1OC(=O)Nc1ccc2c(c1)OCO2")
1.44
>>> quantitative_result("COc1cc(CO)cc(I)c1O[C@H]1C=C(C(=O)NCCO)C[C@@H](N(CC2CCCCC2)C(=O)c2ccc(C(F)(F)F)cc2)[C@@H]1O")
0.483
>>> quantitative_result("CC(C)C(O)C1C=CC2C(=O)N(C)C(=O)C2N1Nc1ccccc1 (configuration not stated)")
0.439

---

Listed next: entries and their corresponding z-score.
# assay summary: basal HepG2 mitochondrial membrane potential changes, profiling panel, cell-based, JC-1 fluorescence, 24 h, 100 nL compound (AID 1167); note: test concentration not given here
# measurement setup: higher = more signal
experimental endpoint: z-score

>>> quantitative_result("COc1ccc([Si](C)(C)[C@H]2[C@H](CCn3cc(CCO)nn3)O[C@@]3(C(=O)N(Cc4ccc(N5C(=O)c6cccc7cccc5c67)cc4)c4ccccc43)[C@@H]2C)cc1")
-0.0483
>>> quantitative_result("COc1ccc(C(O)C2C=CC3C(=O)N(c4ccccc4)C(=O)C3N2Nc2ccc(C#N)cc2)c2ccccc12 (stereo unspecified)")
-1.56
>>> quantitative_result("CC(C)(C)OC(=O)CC[C@]1(C(=O)O)N=C(c2ccc(OCCCO)cc2)O[C@H]1c1ccccc1")
0.367
>>> quantitative_result("C=CCNC(=O)[C@H]1[C@@H]2C(=O)O[C@@H](c3ccccc3)[C@@H](c3ccccc3)N2[C@@H](c2ccccc2OCCO)[C@]12C(=O)N(C(=O)OCCOC)c1ccc(C#CC3=CCCCC3)cc12")
0.215
>>> quantitative_result("O=C1O[C@@H](c2ccccc2)[C@@H](c2ccccc2)N2[C@@H](c3ccccc3OCCO)[C@]3(C(=O)Nc4ccccc43)[C@@H](C(=O)NC[C@H](O)c3ccccc3)[C@H]12")
-1.64
>>> quantitative_result("[N-]=[N+]=NCc1ccccc1C[C@@]1(C(N)=O)N=C(c2ccc(OCCCO)cc2)O[C@@H]1c1ccccc1CN=[N+]=[N-]")
1.18

---

# assay summary: S. cerevisiae RM11-1a growth modifiers, primary screen, strain RM11-1a, OD600, basal, 24 h (AID 1177);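 note: cultures grown under basal conditions with no added stressor; test concentration not given here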
# measurement setup: OD600, 24 h, higher = more signal, called active from +8 up or from −8 down
experimental endpoint: z-score

>>> quantitative_result("CCOC(=O)C1=CC[C@@H](c2cc(Cl)ccc2Cl)N(S(=O)(=O)c2ccc(C)cc2)[C@H]1c1ccc(OC)cc1")
2.28
>>> quantitative_result("COC(=O)[C@@]1(Cc2ccc(F)cc2)[C@H]2c3cc(C(=O)N4CCCC4)n(CCc4c[nH]c5ccc(OC)cc45)c3C[C@H]2CN1C(=O)c1ccccc1")
0.622
>>> quantitative_result("CO[C@H]1O[C@H](CO)[C@@H](OC(=O)Nc2ccc(C(F)(F)F)cc2)[C@H](OC(=O)Nc2ccc3c(c2)OCO3)[C@H]1OC(=O)Nc1ccc2c(c1)OCO2")
1.37
>>> quantitative_result("Cc1ccc(S[C@]2(C(=O)NCC(F)(F)F)CC(=O)N(Cc3ccccc3)[C@@H]2c2ccc(CO)cc2)cc1")
-0.629
>>> quantitative_result("CCCCN1CC=CC23O[C@@H]4C=CCOC(=O)[C@@H]4[C@H]2C(=O)N(C(C)CO)[C@@H]3C1=O (stereo partly drawn)")
-0.938
>>> quantitative_result("CN1C(=O)C2C=CC(C(O)c3c(F)cccc3Cl)N(Nc3ccccc3)C2C1=O (stereo not drawn)")
-0.284
>>> quantitative_result("NC(=O)N1C(=O)C2C(C1=O)C1C=C(CCCO)C2C(c2cccs2)N1Cc1cc2c(cc1Br)OCO2 (stereo not drawn)")
0.0427
>>> quantitative_result("COCCCNC(=O)[C@]1(Cc2ccccc2CN=[N+]=[N-])N=C(c2ccc(OCCCO)cc2)O[C@@H]1c1ccccc1")
0.916

---

# assay summary: S. cerevisiae RM11-1a growth modifiers, primary screen, strain RM11-1a, OD600, basal, 24 h (AID 1177);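 note: cultures grown under basal conditions with no added stressor; test concentration not given here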
# measurement setup: OD600, 24 h, higher = more signal, called active from +8 up or from −8 down
experimental endpoint: z-score

>>> quantitative_result("CC=CC(O)C1C=CC2C(=O)N(C)C(=O)C2N1Nc1ccc([N+](=O)[O-])cc1[N+](=O)[O-] (stereo not given)")
0.658
>>> quantitative_result("CCOc1cc(C(O)C2C=CC3C(=O)N(C)C(=O)C3N2N2CCCCC2)ccc1O (stereo not given)")
2.07
>>> quantitative_result("Cc1c(NC(=O)/C(C#N)=C/C=C/c2ccccc2[N+](=O)[O-])c(=O)n(-c2ccccc2)n1C")
-0.061
>>> quantitative_result("CCOC(=CC(=O)OC)CC(O)c1cccc(Cl)c1 (stereo not given)")
-2.91
>>> quantitative_result("COC(=O)[C@@]1(Cc2ccc(OC)cc2)[C@H]2c3cc(C(=O)N(C)C)n(CCc4c[nH]c5ccc(O)cc45)c3C[C@H]2CN1C(=O)c1ccccc1")
0.599
>>> quantitative_result("COc1ccc(C(O)C2C=CC3C(=O)N(c4ccccc4)C(=O)C3N2Nc2ccc(C#N)cc2)c2ccccc12 (stereo not given)")
-0.993
>>> quantitative_result("CCOC(=O)[C@@H]1[C@@H]2C(=O)N(CC)C(=O)[C@@H]2C[C@@H]1Sc1ccccc1")
0.866
>>> quantitative_result("COCCOC(=O)N1C(=O)[C@@]2(c3cc(C#Cc4ccc(OC)cc4)ccc31)[C@H](C(=O)N1CCN(c3ncccn3)CC1)[C@H]1C(=O)O[C@H](c3ccccc3)[C@H](c3ccccc3)N1[C@@H]2c1ccccc1OCCO")
4.28
>>> quantitative_result("CC(C)(C)OC(=O)CC[C@@]1(C(=O)O)N=C(c2ccc(OCCCO)cc2)O[C@@H]1c1ccccc1")
1.4
>>> quantitative_result("COC(=O)[C@@]1(Cc2ccccc2)[C@H]2c3cc(C(=O)N4CCCC4)n(Cc4cc(F)cc5c4OCOC5)c3C[C@H]2CN1C(=O)c1ccccc1")
-0.0989
>>> quantitative_result("COc1ccc([Si](C)(C)[C@@H]2[C@@H](CCn3cc([C@H](O)c4ccccc4)nn3)O[C@]3(C(=O)N(Cc4ccc(N5CCOC5=O)cc4)c4ccccc43)[C@H]2C)cc1")
1.54
>>> quantitative_result("C=CCN1C(=O)[C@@]2(O[C@@H](CCO)[C@H]([Si](C)(C)c3ccc(OC)cc3)[C@H]2C)c2cc(N3C(=O)c4ccccc4Oc4ccccc43)ccc21")
3.35
>>> quantitative_result("C=CCC(OC(C)=O)[C@@H]1[C@@H](N(Cc2cc3ccccc3o2)C(=O)c2ccc(C)cc2)c2cc(OCCCO)ccc2N1C(=O)Cc1ccc2ccccc2c1 (stereo not given in full)")
0.554
>>> quantitative_result("CC(C)CNC(=O)[C@@H]1c2ccccc2C(=O)N(Cc2cc(F)cc(C(F)(F)F)c2)[C@H]1c1ccc(CO)cc1")
-0.604
>>> quantitative_result("C=C[C@@H](COC(C)=O)NS(=O)(=O)c1ccc(Br)cc1")
0.628
>>> quantitative_result("C=CC1c2cc(O)c(OC)cc2CCN1Cc1sc2ccccc2c1Cl (stereo not given)")
-3.6
>>> quantitative_result("CC(C)C(=C=CC[C@@H](O)c1ccccc1OCCO)C[C@@H](O)COCc1ccccc1")
-4.06
>>> quantitative_result("CN(C)CCCCNC(=O)[C@H]1C[C@H]2C(=O)N[C@@H](CCCCN(C)C)C(=O)N2[C@H]1c1cccc(OCCO)c1")
0.807
>>> quantitative_result("COc1ccccc1CN1C(=O)c2ccccc2[C@](Cc2ccccc2I)(C(=O)NC(C)C)[C@@H]1c1ccc(CO)cc1")
0.862
>>> quantitative_result("COC(=O)C[C@H]1O[C@]2(C(=O)N(C)c3ccccc32)[C@@H](C)[C@@H]1[Si](C)(C)c1ccc(C)cc1")
0.155
>>> quantitative_result("COC(=O)[C@@]1(Cc2ccc(OC)cc2)[C@H]2c3cc(C(=O)N(C)C)n(Cc4ccccc4)c3C[C@H]2CN1C(=O)c1ccccc1")
0.692
>>> quantitative_result("CCCC[C@@H]1C[C@H]1[C@@H](NC(=O)c1cccnc1)c1ccc(-c2ccccc2)cc1")
-0.402
>>> quantitative_result("[N-]=[N+]=Nc1ccccc1C[C@]1(C(=O)NCc2ccccc2)N=C(c2ccc(OCCCO)cc2)O[C@H]1c1ccccc1")
3.08
>>> quantitative_result("CN(C)CCCNC(=O)[C@@]1(C)c2ccccc2C(=O)N(Cc2cc(C(F)(F)F)cc(C(F)(F)F)c2)[C@H]1c1ccc(CO)cc1")
0.874
>>> quantitative_result("C=CC[C@@H](OC(=O)Nc1ccc(OC)cc1)c1ccc(OCCO)cc1")
-0.373
>>> quantitative_result("CCOC(=O)C[C@H]1[C@H](OC(=O)c2ccccc2-c2ccccc2)[C@@H](NC(=O)c2ccc3ccccc3n2)c2cc(OCCCO)ccc2N1C(=O)c1ccc2ccccc2n1")
-0.344
>>> quantitative_result("CCOC(=O)C[C@H]1[C@H](OC(=O)c2ccc(-c3ccccc3)cc2)[C@@H](NC(=O)c2ccc3ccccc3c2)c2cc(OCCCO)ccc2N1C(=O)c1ccc2ccccc2n1")
-0.736
>>> quantitative_result("COC(=O)[C@H](Cc1ccccc1)N1CC(/C=C/C2CC2)=C[C@@H]1[C@@H](O)Cc1ccccc1")
0.385
>>> quantitative_result("CCC[C@@H]1C[C@@]1(CCC)[C@@H](NP(=O)(c1ccccc1)c1ccccc1)c1ccc(Cl)cc1")
0.525
>>> quantitative_result("C=CCN1C(=O)[C@]2(CC=C)N=C(c3ccc(OCCCO)cc3)O[C@@H]2c2ccccc21")
0.506

Provenance of the data: PubChem BioAssay
